Data provenance is ChEMBL document CHEMBL5518164.

test system: Human immunodeficiency virus 2; test: Antiviral activity against HIV-2 ROD infected in wild type human CEM/0 cells assessed as inhibition of virus-induced giant cell formation incubated for 4 to 5 days by light microscopy; type: functional, organism-based; conditions: Human immunodeficiency virus 2, ROD, CCRF-CEM
pEC50: −log10 of the molar value.
Observation Type: pEC50

# input Recorded pEC50 for CC(C)OC(=O)OCOP(=O)(CO[C@H](C)Cn1cnc2c(N)ncnc21)OCOC(=O)OC(C)C.O=C(O)/C=C/C(=O)O [TENOFOVIR DISOPROXIL FUMARATE] with Human immunodeficiency virus 2, please?
# output 8.52

a = CCCCCCCCCCCCCCCCCCOP(=O)(OCCCC)OP(=O)(O)OP(=O)(O)CO[C@H](C)Cn1cnc2c(N)ncnc21 (some centres not stated)
b = CCCCCCCCCCCCCCCCCCOP(=O)(OCc1ccc(OC(=O)CCCC)cc1)OP(=O)(O)OP(=O)(O)CO[C@H](C)Cn1cnc2c(N)ncnc21 (some centres not stated)
c = CCCCCCCCCCCCCCCCCCOP(=O)(OCc1ccc(OC(=O)CCCCCCCC)cc1)OP(=O)(O)OP(=O)(O)CO[C@H](C)Cn1cnc2c(N)ncnc21 (some centres not stated)
d = CCCCOP(=O)(OCCCC)OP(=O)(O)OP(=O)(O)CO[C@H](C)Cn1cnc2c(N)ncnc21
# input // smallest pEC50 at index 0, largest at the end Order the labels as requested and give them as your answer.
# output d, c, b, a

1 = CCCCCCCCCCCCCCCCCCOP(=O)(OCc1ccc(OC(=O)CC)cc1)OP(=O)(O)OP(=O)(O)CO[C@H](C)Cn1cnc2c(N)ncnc21 (some centres not stated)
2 = CCCCCCCCCCCCCCCCCCOP(=O)(OCc1ccc(OC(=O)CCCCCC)cc1)OP(=O)(O)OP(=O)(O)CO[C@H](C)Cn1cnc2c(N)ncnc21 (some centres not stated)
3 = CCCCCCCCCCCCCCCCCCOP(=O)(O)OP(=O)(O)OP(=O)(O)CO[C@H](C)Cn1cnc2c(N)ncnc21
# input Falling order of pEC50, please. Provide the ranking by listing each label in its place in the requested order.
# output 1, 3, 2
(1: 6.92, 3: 6.15, 2: 4.99)

P = CCCCCCCCCCCCOP(=O)(OCCCCCCCCCCCC)OP(=O)(O)OP(=O)(O)CO[C@H](C)Cn1cnc2c(N)ncnc21
Q = CCCCCCCCCCCCCCCCCCP(=O)(OCCCC)OP(=O)(O)OP(=O)(O)CO[C@H](C)Cn1cnc2c(N)ncnc21 (some centres not stated)
R = CCCCCCCCCCCCCCCCCCP(=O)(OCCCC)OP(=O)(O)CO[C@H](C)Cn1cnc2c(N)ncnc21 (some centres not stated)
# input Please list the entries, largest pEC50 first. Submit the labels in the order that the ranking request calls for.
# output R, P, Q

###

assay: Half life of the compound in human CEM/0 cell extracts by RP18-HPLC analysis; type: ADME, CCRF-CEM
Observation Type: half-life

Known results for molecules:
# input Dear colleague, I am looking for the recorded half-life of the following molecule: CCCCCCCCCCCCCCCCCCOP(=O)(OCCCCCCCC)OP(=O)(O)OP(=O)(O)CO[C@H](C)Cn1cnc2c(N)ncnc21 (stereo partly drawn)
# output > 480 min

# input And then `CCCCCCCCCCCCOP(=O)(OCCCCCCCCCCCC)OP(=O)(O)OP(=O)(O)CO[C@H](C)Cn1cnc2c(N)ncnc21` , what is it?
# output > 1200 min

Let us examine a further case.
# input Entry CCCCCCCCCCCCCCCCCCP(=O)(OCCCCCCCC)OP(=O)(O)CO[C@H](C)Cn1cnc2c(N)ncnc21 (stereo partly drawn) : reported half-life = ?
# output > 480 min
